Hello, the source for this data is PubChem BioAssay (NCI), in case you need it.

System: M14 melanoma
Assay: NCI-60 one-dose screen, 48 h (100 = growth as untreated, 0 = no growth, -100 = all killed)
Details: 10 µM unless noted
The panel holds about 83,000 compounds, 20% with a hit somewhere; the sample as a whole holds those more often.
MEASURED ENDPOINT: growth (%)
Give bare numbers, in %.

For orientation, consider the following solved cases.
{"columns": ["COMPOUND", "TARGET UNDER TEST", "growth [%]"],
 "data": [
  ["COc1cc(C2CC(C3C(=O)N(C)C(=O)N(C)C3=O)=NN2C=O)cc(OC)c1OC (stereo not drawn)", "M14 melanoma", 84],
  ["CS(=O)(=O)N1CCN(Cc2cc3nc(-c4cccc5[nH]ncc45)nc(N4CCOCC4)c3s2)CC1 (tested in a mixture with another compound)", "M14 melanoma", 25],
  ["Nc1nc(SCc2cccnc2)c2ncn(C3OC(CO)C(O)C3O)c2n1 (stereo not drawn)", "M14 melanoma", 97.8],
  ["Cc1ccc(S(=O)(=O)NCCN2c3nc4ccccc4cc3Sc3cc4ccccc4nc32)cc1", "M14 melanoma", 77.4],
  ["Cc1cc(=O)[nH]c(/C(=N/Nc2ccccc2)C(=O)c2ccc(Cl)cc2)n1", "M14 melanoma", 97.1],
  ["COc1ccc(Cl)cc1Nc1nc(C(F)(F)F)ccc1C(=O)N/N=C/c1c(Cl)cccc1Cl", "M14 melanoma", 71.3],
  ["COc1cc(/C=C/c2cc(/C=C/c3ccc(O)c(OC)c3)n(C(=O)Cc3ccccc3)n2)ccc1O", "M14 melanoma", 0.243],
  ["Cc1ccc(-c2cc(-c3ccccc3)n(-c3ccccc3)n2)cc1", "M14 melanoma", 110]
]}

I need growth for every entry listed below, if you could help.
1. CC[C@H]1CN2CCc3cc(OC)c(OC)cc3C2C[C@@H]1CC1NCCc2cc(OC)c(OC)cc21 (stereo partly drawn)
2. Nc1ccn(C2O[C@H](CO)[C@@H](O)[C@@H]2O)c(=O)n1 (stereo partly drawn)
3. CCOC(=O)C1=CCC(n2cc(C)c(=O)[nH]c2=O)O1 (stereo not drawn)
4. CCOC(=O)OCC(=O)[C@@]1(O)CC[C@H]2[C@@H]3CCC4=CC(=O)CC[C@]4(C)[C@H]3[C@@H](O)C[C@@]21C

Resp:
1: -82.9; 2: -15.7; 3: 106; 4: 90.7

Req: Answer with reported growth of Cc1ccccc1NC(=O)NC(CC(N)=O)c1ccc2c(c1)nc(-c1cccc(Oc3ccc(C(C)(C)C)cc3)c1)n2CCCN1CCCCC1C (stereo not drawn)
Resp: -81.8
